Hello, the source for this data is PubChem BioAssay (NCI), in case you need it.

Tested on: NCI-H522 lung
assay_explanation: NCI tumour cell line growth inhibition, 48 h
parameter_measured: TGI (µM)
Give bare numbers, in µM.

Example cases with answers are listed next.
{"compound": "CCOc1cc2c(cc1O)CC[C@@H]1[C@@H]2CC[C@]2(C)[C@@H](O)CC[C@@H]12", "TGI [µM]": 0.0197}
{"compound": "CCN(CCNc1ccc(C)c2sc3cc(Cl)ccc3c(=O)c12)CC(C)(C)O", "TGI [µM]": 20}
{"compound": "Nc1nc(-c2ccccc2)cc(-c2cc(Cl)ccc2O)n1", "TGI [µM]": 99.7}
{"compound": "C=CC[PH+](c1ccccc1)c1ccccc1.C=CC[PH+](c1ccccc1)c1ccccc1.[Pt+2].[S-]c1ncccn1.[S-]c1ncccn1", "TGI [µM]": 5.78}

Could I get TGI for every one of these entries?
1. CCc1ccc(C2=NN(c3ccc(S(C)(=O)=O)cc3)C(=O)CC2)cc1
2. O=C(c1ccccc1)c1ccc2nc3n(c2c1)C(c1c(Cl)cccc1Cl)SC3 (stereo unspecified)
3. CN(C)CCNC(=O)c1cccc2cc3ccc4ccccc4c3nc12
4. CCC1=C(c2ccc(OC)cc2)CC[C@]2(CCNC2=O)[C@@H]1C

Reply:
[8.37, 5.1, 0.28, 56.3]

###

Could you please report measured TGI for the items listed next?
System: U251 CNS
assay_explanation: NCI tumour cell line growth inhibition, 48 h
Where a SMILES comes first, the peptide text is derived from it. The star is where a group is joined. Boc = CC(C)(C)OC(=O)*; tBu = CC(C)(C)*

Please review the following examples before continuing.
{"compound": "O=S(=O)(c1ccc2ccccc2c1)N1CCN(S(=O)(=O)c2ccc3ccccc3c2)CC1", "TGI": "> 100 µM"}
{"compound": "CCCCOc1ccc(S(=O)(=O)/N=C(\\N)Nc2ccc(Cl)cc2)cc1", "TGI": "28 µM"}
{"compound": "Nc1ncnc2c1ncn2CCOC(c1ccccc1)P(=O)(O)O (stereo unspecified)", "TGI": "> 100 µM"}
{"compound": "Cc1ccc(O)cc1Nc1ccnc2cc(-c3ccccn3)ccc12", "TGI": "6.65 µM"}
{"compound": "NCC(Cc1ccccc1)P(=O)(O)O (stereo unspecified)", "TGI": "> 100 µM"}

I have 4 compounds here; please give me TGI for each one.
1. O=c1c2ccccc2n2cnc3ccc(NCCNCCO)c1c32
2. CC1(C)CC(O)CC(C)(C)N1.CC1(C)CC(O)CC(C)(C)N1.CC1(C)CC(O)CC(C)(C)N1.CC1(C)CC(O)CC(C)(C)N1.Cl.[Ti]
3. N#C[C@H](C(=O)c1ccccc1F)c1nc2ccccc2[nH]1
4. CC1=NN(C(=O)c2ccc(C)cc2)C(=O)C1N=Nc1ccccc1C(=O)O (stereo unspecified)

Reply:
1. 13.6 µM
2. > 100 µM
3. > 100 µM
4. > 100 µM

Each compound below has a recorded value; state its TGI.
1. Nc1ncc(Sc2ccccc2C(=O)O)s1
2. COC(=O)[C@]1(C)CCCC2(C)C3=C(CCC21)CC1(CC3)SCCS1 (stereo partly specified)
3. CCOP(=O)(/C=C\n1ccc(=O)[nH]c1=O)OCC
4. OC1CSCCSCCCSCCSC1
5. Cc1cc(-c2ccco2)cc(C)c1/C=C/c1cncc(-c2nn[nH]n2)c1
6. CC1CCC2c3c([nH]c4ccccc34)C3C(=O)N(c4ccccc4)C(=O)C3C2C1 (stereo unspecified)
7. Cc1cc(OC(=O)Nc2ccc(Cl)cc2)ccc1C(=S)Nc1ccccc1

Reply:
> 100 µM
> 10 µM
> 100 µM
> 100 µM
> 25 µM
> 250 µM
> 100 µM

For each of the items listed, what is its TGI?
1. Nc1ncnc2sc(Nc3ccccc3)nc12
2. O=C(O)Cn1ccc(=O)c2c([N+](=O)[O-])cccc21

Reply:
1: > 100 µM; 2: > 100 µM

Please go through the list and note TGI for each compound.
1. O=C(/C=C/c1ccc(Cl)cc1)c1ccc(Cl)s1
2. CN1CCOCCOCCOc2ccccc2NC(=O)c2nc(cnc2N)-c2ccc(cc2)S1(=O)=O
3. CC(OC(C)(C)C)C(NC(=O)C(N)CCCCNC(=O)OC(C)(C)C)C(=O)NC(Cc1ccccc1)C(=O)O (stereo unspecified) (H-Lys(Boc)-Thr(tBu)-Phe-OH; configuration not given here)

Reply:
> 100 µM
> 100 µM
> 100 µM
